tested on: SCID mice bearing twin HEK293-CCK2i4svR and wtHEK293 tumors; assay: Biodistribution in SCID mice bearing twin HEK293-CCK2i4svR and wtHEK293 xenografts; type: in vivo; settings: 24 h pi
Each record is given YES if its reported Biodistribution, Lungs is strictly below 0.4 %IA/g. Records at or above 0.4 %IA/g are given NO.

[
  {
    "compound": "CC(C)(C)C(=O)CN1C(=O)[C@H](NC(=O)Nc2cccc(C(=O)NCCOCCOCCOCCNC(=O)[C@H](CCC(=O)O)NC(=O)CCC(C(=O)O)N3CCN(CC(=O)[O-])CCN(CC(=O)[O-])CCN(CC(=O)[O-])CC3)c2)CN(C2CCCCC2)c2ccccc21.[67Ga+3] (stereo in doubt) [[^67Ga]Ga-GAS3]",
    "assigned.label": "NO"
  },
  {
    "compound": "CC(C)(C)C(=O)CN1C(=O)[C@H](NC(=O)Nc2cccc(C(=O)NCCOCCOCCOCCNC(=O)[C@H](CCC(=O)O)NC(=O)CN3CCN(CC(=O)[O-])CCN(CC(=O)[O-])CCN(CC(=O)[O-])CC3)c2)CN(C2CCCCC2)c2ccccc21.[67Ga+3] (stereo in doubt) [[^67Ga]Ga-GAS1]",
    "assigned.label": "YES"
  },
  {
    "compound": "CC(C)(C)C(=O)CN1C(=O)[C@H](NC(=O)Nc2cccc(C(=O)NCCOCCOCCOCCNC(=O)[C@@H](CCC(=O)O)NC(=O)CCC(C(=O)[O-])N3CCN(CC(=O)[O-])CCN(CC(=O)[O-])CC3)c2)CN(C2CCCCC2)c2ccccc21.[111In+3] (stereo partly shown) [[^111In]In-GAS2]",
    "assigned.label": "NO"
  },
  {
    "compound": "CC(C)(C)C(=O)CN1C(=O)[C@H](NC(=O)Nc2cccc(C(=O)NCCOCCOCCOCCNC(=O)[C@H](CCC(=O)O)NC(=O)CCC(C(=O)[O-])N3CCN(CC(=O)[O-])CCN(CC(=O)[O-])CC3)c2)CN(C2CCCCC2)c2ccccc21.[67Ga+3] (stereo in doubt) [[^67Ga]Ga-GAS2]",
    "assigned.label": "YES"
  },
  {
    "compound": "CC(C)(C)C(=O)CN1C(=O)[C@H](NC(=O)Nc2cccc(C(=O)NCCOCCOCCOCCNC(=O)[C@H](CCC(=O)O)NC(=O)CN3CCN(CC(=O)[O-])CCN(CC(=O)[O-])CCN(CC(=O)[O-])CC3)c2)CN(C2CCCCC2)c2ccccc21.[177Lu+3] (stereo in doubt) [[^177Lu]Lu-GAS1]",
    "assigned.label": "YES"
  },
  {
    "compound": "CC(C)(C)C(=O)CN1C(=O)[C@H](NC(=O)Nc2cccc(C(=O)NCCOCCOCCOCCNC(=O)[C@H](CCC(=O)O)NC(=O)CN3CCN(CC(=O)[O-])CCN(CC(=O)[O-])CCN(CC(=O)[O-])CC3)c2)CN(C2CCCCC2)c2ccccc21.[111In+3] (stereo in doubt) [[^111In]In-GAS1]",
    "assigned.label": "YES"
  },
  {
    "compound": "CC(C)(C)C(=O)CN1C(=O)[C@H](NC(=O)Nc2cccc(C(=O)NCCOCCOCCOCCNC(=O)[C@H](CCC(=O)O)NC(=O)CCC(C(=O)O)N3CCN(CC(=O)[O-])CCN(CC(=O)[O-])CCN(CC(=O)[O-])CC3)c2)CN(C2CCCCC2)c2ccccc21.[177Lu+3] (stereo in doubt) [[^177Lu]Lu-GAS3]",
    "assigned.label": "YES"
  }
]

Values compiled from paper PMC8954547.
